biological target: p110α/p85α (Homo sapiens (Human), UniProt P42336); assay: PI3K α inhibition assay (TLC lipid kinase or HTRF)
Sequence (P42336 whole entry): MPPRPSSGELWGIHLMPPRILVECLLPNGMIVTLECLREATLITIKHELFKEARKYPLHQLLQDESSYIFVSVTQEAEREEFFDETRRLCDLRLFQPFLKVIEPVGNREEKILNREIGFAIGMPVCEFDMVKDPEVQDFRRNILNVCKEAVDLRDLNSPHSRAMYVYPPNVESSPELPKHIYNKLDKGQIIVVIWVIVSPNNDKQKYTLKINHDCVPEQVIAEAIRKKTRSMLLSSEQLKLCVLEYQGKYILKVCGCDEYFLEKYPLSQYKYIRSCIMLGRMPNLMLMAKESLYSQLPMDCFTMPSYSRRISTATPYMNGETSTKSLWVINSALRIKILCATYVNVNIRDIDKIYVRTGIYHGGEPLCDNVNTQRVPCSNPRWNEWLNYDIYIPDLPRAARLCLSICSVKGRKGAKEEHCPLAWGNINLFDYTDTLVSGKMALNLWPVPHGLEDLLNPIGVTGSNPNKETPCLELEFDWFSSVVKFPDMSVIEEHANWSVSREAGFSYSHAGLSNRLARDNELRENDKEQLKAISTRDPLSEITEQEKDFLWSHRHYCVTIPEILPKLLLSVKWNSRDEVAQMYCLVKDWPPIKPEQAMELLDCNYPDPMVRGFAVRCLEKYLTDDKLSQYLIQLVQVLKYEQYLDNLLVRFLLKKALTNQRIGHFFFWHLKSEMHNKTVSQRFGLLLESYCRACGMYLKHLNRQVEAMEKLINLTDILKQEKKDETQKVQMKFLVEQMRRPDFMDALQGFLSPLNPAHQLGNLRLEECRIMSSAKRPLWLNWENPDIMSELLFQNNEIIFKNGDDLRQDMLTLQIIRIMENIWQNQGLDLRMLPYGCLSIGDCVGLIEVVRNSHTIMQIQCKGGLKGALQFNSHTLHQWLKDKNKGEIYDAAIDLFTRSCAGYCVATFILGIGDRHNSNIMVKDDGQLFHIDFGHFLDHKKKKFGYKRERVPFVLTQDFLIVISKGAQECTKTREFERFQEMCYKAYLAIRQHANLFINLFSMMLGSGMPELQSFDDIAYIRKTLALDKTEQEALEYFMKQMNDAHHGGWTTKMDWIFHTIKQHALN
Sequence (P27986 whole entry partner): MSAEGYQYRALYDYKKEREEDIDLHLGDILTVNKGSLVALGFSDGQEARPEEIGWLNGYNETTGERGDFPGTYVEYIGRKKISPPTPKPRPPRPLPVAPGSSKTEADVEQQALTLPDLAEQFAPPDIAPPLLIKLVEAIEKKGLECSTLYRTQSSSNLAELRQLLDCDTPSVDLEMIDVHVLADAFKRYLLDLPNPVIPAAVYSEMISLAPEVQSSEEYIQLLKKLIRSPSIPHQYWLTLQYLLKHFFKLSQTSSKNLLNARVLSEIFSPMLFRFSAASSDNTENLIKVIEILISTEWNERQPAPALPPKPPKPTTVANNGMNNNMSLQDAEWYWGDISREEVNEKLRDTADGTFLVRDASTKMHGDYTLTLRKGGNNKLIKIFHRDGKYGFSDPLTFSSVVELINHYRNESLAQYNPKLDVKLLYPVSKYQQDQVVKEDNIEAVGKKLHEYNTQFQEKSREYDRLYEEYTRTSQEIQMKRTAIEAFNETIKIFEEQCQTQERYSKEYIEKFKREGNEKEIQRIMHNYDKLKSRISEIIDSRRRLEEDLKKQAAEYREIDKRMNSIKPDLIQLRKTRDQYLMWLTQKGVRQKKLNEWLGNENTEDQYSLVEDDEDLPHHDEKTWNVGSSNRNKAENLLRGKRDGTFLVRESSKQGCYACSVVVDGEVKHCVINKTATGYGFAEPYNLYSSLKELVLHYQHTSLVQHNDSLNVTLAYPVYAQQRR
// reported IC50 for each item listed

In the examples that follow, each entry is paired with its recorded IC50.
N#Cc1nn(Cc2cc3ccccc3nc2-c2ccccc2F)c2ncnc(N)c12 [Compound 189] : > 1 µM
CC(=O)Nc1nc2ccc(-c3nn(Cc4cc5ccccc5nc4-c4ccccc4C)c4ncnc(N)c34)cc2s1 [Compound 84] : > 1 µM
Nc1ccc2cc(-c3nn(Cc4cc5ccccc5nc4-c4ccccc4F)c4ncnc(N)c34)ccc2n1 [Compound 136] : > 1 µM
CC(C)N(C)c1nc2ccccc2cc1Cn1nc(-c2cc(O)cc(F)c2)c2c(N)ncnc21 [Compound 52] : 0.1 to 1 µM
Nc1ncnc2c1c(-c1cnn(CCO)c1)nn2Cc1cc2ccccc2nc1-c1ccccc1 [Compound 179] : > 1 µM
Nc1ncnc2ccc(-c3nn(Cc4cc5ccccc5nc4N4CCOCC4)c4ncnc(N)c34)cc12 [Compound 142] : 0.1 to 1 µM

Form field - read-out: IC50; system: p110α/p85α (Homo sapiens (Human), UniProt P42336); submitted item: CCn1c(=O)c(Cn2nc(-c3cccc(O)c3)c3c(N)ncnc32)cc2ccccc21 [Compound 115] > 1 µM

Form field - read-out: IC50; system: p110α/p85α (Homo sapiens (Human), UniProt P42336); submitted item: CC(=O)Nc1nc2ccc(-c3nn(Cc4cc5ccccc5nc4-c4ccccc4F)c4ncnc(N)c34)cc2s1 [Compound 83] > 1 µM

* * *

target: p110γ (Homo sapiens (Human))
Sequence (P48736 whole entry): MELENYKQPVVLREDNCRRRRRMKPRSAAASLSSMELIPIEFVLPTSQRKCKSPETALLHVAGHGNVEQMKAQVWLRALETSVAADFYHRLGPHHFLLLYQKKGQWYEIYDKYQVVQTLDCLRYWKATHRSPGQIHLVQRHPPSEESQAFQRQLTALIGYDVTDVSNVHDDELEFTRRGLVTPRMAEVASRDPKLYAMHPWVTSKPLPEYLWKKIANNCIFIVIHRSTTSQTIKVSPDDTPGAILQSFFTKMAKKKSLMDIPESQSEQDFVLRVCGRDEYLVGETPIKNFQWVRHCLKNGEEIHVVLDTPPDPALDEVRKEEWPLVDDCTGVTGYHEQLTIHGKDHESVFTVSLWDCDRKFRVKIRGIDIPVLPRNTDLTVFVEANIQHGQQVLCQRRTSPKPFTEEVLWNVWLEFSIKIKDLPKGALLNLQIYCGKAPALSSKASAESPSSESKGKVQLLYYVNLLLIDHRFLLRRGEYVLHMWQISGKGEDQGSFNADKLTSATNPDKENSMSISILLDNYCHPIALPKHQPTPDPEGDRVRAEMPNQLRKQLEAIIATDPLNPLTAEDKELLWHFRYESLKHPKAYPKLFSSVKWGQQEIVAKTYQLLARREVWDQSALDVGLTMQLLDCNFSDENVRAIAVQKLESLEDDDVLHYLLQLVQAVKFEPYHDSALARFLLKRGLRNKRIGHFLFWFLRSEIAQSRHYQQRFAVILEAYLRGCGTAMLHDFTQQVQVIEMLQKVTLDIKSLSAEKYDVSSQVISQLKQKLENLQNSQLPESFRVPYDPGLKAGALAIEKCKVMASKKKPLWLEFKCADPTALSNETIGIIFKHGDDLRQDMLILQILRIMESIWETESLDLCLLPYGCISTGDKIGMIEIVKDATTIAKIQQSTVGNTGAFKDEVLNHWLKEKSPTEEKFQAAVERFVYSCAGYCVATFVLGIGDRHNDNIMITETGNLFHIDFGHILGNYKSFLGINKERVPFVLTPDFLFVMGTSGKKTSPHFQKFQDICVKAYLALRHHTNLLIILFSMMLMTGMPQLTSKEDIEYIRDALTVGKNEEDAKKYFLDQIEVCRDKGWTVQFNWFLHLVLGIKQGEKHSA
pIC50: −log10 of the molar value.
recorded-endpoint: pIC50

Form field - read-out: pIC50; system: p110γ (Homo sapiens (Human)); submitted item: `NCc1ccc(F)cc1-c1nc2ccccc2cc1Cn1nc(-c2cc(O)cc(F)c2)c2c(N)ncnc21` < 6.00

Form field - read-out: pIC50; system: p110γ (Homo sapiens (Human)); submitted item: `Nc1ccc2cc(-c3nn(Cc4cc5ccccc5nc4N4CCOCC4)c4ncnc(N)c34)ccc2n1` > 7.00

Form field - read-out: pIC50; system: p110γ (Homo sapiens (Human)); submitted item: `Nc1nc2cc(-c3nn(Cc4cc5ccccc5nc4-c4ccccc4)c4ncnc(N)c34)ccc2o1` > 7.00

Form field - read-out: pIC50; system: p110γ (Homo sapiens (Human)); submitted item: CC(c1cc2ccccc2nc1N1CCCC1)n1nc(-c2cc(O)cc(F)c2)c2c(N)ncnc21 (stereo not shown) > 7.00

Form field - read-out: pIC50; system: p110γ (Homo sapiens (Human)); submitted item: `Nc1ncnc2c1c(/C=C1/SC(=O)NC1=O)nn2Cc1cc2ccccc2nc1-c1ccccc1F` > 7.00

Form field - read-out: pIC50; system: p110γ (Homo sapiens (Human)); submitted item: `CN1CCN(c2nc3ccccc3cc2Cn2cnc3c(N)ncnc32)CC1` < 6.00

Form field - read-out: pIC50; system: p110γ (Homo sapiens (Human)); submitted item: `CC(=O)Nc1nc2ccc(-c3nn(Cc4cc5ccccc5nc4N4CCCC4)c4ncnc(N)c34)cc2s1` > 7.00

Form field - read-out: pIC50; system: p110γ (Homo sapiens (Human)); submitted item: `C=Cc1nn(Cc2cc3ccccc3nc2-c2ccccc2F)c2ncnc(N)c12` < 6.00

Form field - read-out: pIC50; system: p110γ (Homo sapiens (Human)); submitted item: `Cc1ccccc1-c1nc2ccccc2cc1Cn1nc(-c2cccc(O)c2)c2c(N)ncnc21` 6.00 to 7.00

Form field - read-out: pIC50; system: p110γ (Homo sapiens (Human)); submitted item: `Cc1ccccc1-c1nc2ccccc2cc1Cn1nc(-c2ccc3oc(N)nc3c2)c2c(N)ncnc21` > 7.00

Form field - read-out: pIC50; system: p110γ (Homo sapiens (Human)); submitted item: CC(c1cc2ccccc2nc1N1CCCC1)n1nc(-c2cccc(O)c2)c2c(N)ncnc21 (stereo not shown) 6.00 to 7.00

Form field - read-out: pIC50; system: p110γ (Homo sapiens (Human)); submitted item: `CN1CCN(CCc2nc3ccccc3cc2Cn2nc(-c3cc(O)cc(F)c3)c3c(N)ncnc32)CC1` < 6.00

Form field - read-out: pIC50; system: p110γ (Homo sapiens (Human)); submitted item: CCC(c1cc2ccccc2nc1-c1ccccc1)n1cnc2c(N)ncnc21 (stereo not shown) < 6.00

Form field - read-out: pIC50; system: p110γ (Homo sapiens (Human)); submitted item: `Cc1ccccc1-c1nc2ccccc2cc1Cn1nc(-c2cc(O)cc(F)c2)c2c(N)ncnc21` > 7.00

Form field - read-out: pIC50; system: p110γ (Homo sapiens (Human)); submitted item: `CN1CCN(c2nc3ccccc3nc2Cn2nc(-c3ccc4nc(N)sc4c3)c3c(N)ncnc32)CC1` > 7.00

Form field - read-out: pIC50; system: p110γ (Homo sapiens (Human)); submitted item: `Cn1c(=O)c(Cn2nc(-c3cccc(O)c3)c3c(N)ncnc32)cc2ccccc21` < 6.00
